The measurements presented in this section are drawn from ChEMBL document CHEMBL3425497.

Below is a list of entries, each paired with its recorded Activity value.
test system: Cavia porcellus; test: Bronchoprotection in male Duncan Hartley guinea pig bronchoconstriction einthoven model assessed as inhibition of methacholine-induced bronchoconstriction at 100 microg/ml, inhalation after 1.5 hrs by in vivo beta2 adrenergic receptor agonist activity assay; format: functional; design: scale not given: the % may be the effect or the level left
property-label: Activity (%)

1. O=C(CCN1CCC(OC(=O)Nc2ccccc2-c2ccccc2)CC1)Nc1ccc(CNC[C@H](O)c2ccc(O)c3[nH]c(=O)ccc23)cc1; 47
2. COc1cc(NC(=O)CCN2CCC(OC(=O)Nc3ccccc3-c3ccccc3)CC2)ccc1CNC[C@H](O)c1ccc(O)c2[nH]c(=O)ccc12; 70
3. COc1cc(NC(=O)CCN2CCC(OC(=O)Nc3ccccc3-c3ccccc3)CC2)c(Cl)cc1CNC[C@H](O)c1ccc(O)c2[nH]c(=O)ccc12; 73
4. O=C(CCN1CCC(OC(=O)Nc2ccccc2-c2ccccc2)CC1)Nc1cccc(CCNC[C@H](O)c2ccc(O)c3[nH]c(=O)ccc23)c1; 80
5. NC(=O)C(c1ccccc1)(c1ccccc1)[C@@H]1CCN(CCc2ccc3c(c2)CCO3)C1; 74
6. O=C(Nc1ccccc1-c1ccccc1)OC1CCN(CCCCCCCCCNC[C@H](O)c2ccc(O)c3[nH]c(=O)ccc23)CC1; 63
